Observed IC50 for MMP-9 (Homo sapiens), reported per entry below.
parameter: IC50 (µM)

>>> result_value("O=C1[C@H](CS(=O)(=O)c2ccc(Oc3ccccc3)cc2)NCCCN1O")
0.0306
>>> result_value("Cc1ccc(Oc2ccc(N(Cc3cccn(O)c3=O)S(C)(=O)=O)cc2)cc1")
0.0469
>>> result_value("COc1ccc(-c2ccc(S(=O)(=O)N[C@@H]3CC=CCN(O)C3=O)s2)cc1")
0.0107
>>> result_value("O=C1C(S(=O)(=O)c2ccc(-c3ccc(F)cc3)cc2)CCCCN1O (centres unmarked)")
1.19
>>> result_value("Cc1ccc(S(=O)(=O)Cn2cccc(O)c2=O)cc1")
1.07

* * *

- target desc: MMP-9 (Homo sapiens, UniProt P14780)
- Construct: Human MMP-9 catalytic domain (aa 107-446)
- Sequence (P14780 107-446): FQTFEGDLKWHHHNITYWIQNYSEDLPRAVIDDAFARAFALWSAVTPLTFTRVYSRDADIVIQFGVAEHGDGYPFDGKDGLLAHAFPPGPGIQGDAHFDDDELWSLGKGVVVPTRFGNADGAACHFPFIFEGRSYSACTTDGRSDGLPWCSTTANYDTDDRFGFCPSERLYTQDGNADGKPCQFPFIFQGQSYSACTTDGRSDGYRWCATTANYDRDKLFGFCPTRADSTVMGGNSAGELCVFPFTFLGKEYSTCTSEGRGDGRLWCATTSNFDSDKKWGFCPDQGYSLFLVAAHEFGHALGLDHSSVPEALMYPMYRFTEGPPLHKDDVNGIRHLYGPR
- procedure text: MMP enzymatic assay (Trupoint peptide), MMP-9
- Format: biochemical
parameter: IC50 (nM)

>>> result_value("Cc1ccc(Oc2ccc(S(=O)(=O)N(CCN3CCOCC3)c3cccn(O)c3=O)cc2)cc1")
2.41
>>> result_value("O=C1C(N(CCN2CCOCC2)S(=O)(=O)c2ccc(-c3ccc(Cl)cc3)s2)CC=CCN1O (centres unmarked)")
17.2
>>> result_value("CC(C)CN(c1cccn(O)c1=O)S(=O)(=O)c1ccc(Oc2ccccc2)cc1")
57.5
>>> result_value("O=C1[C@H](NS(=O)(=O)c2ccc(-c3ccc(Cl)cc3)cc2)CC=CCN1O")
1140
>>> result_value("CN1CCN(CCN(c2cccn(O)c2=O)S(=O)(=O)c2ccc(Oc3ccc(Cl)cc3)cc2)CC1")
1.3
>>> result_value("COc1ccc(Oc2ccc(S(=O)(=O)C3CCCN(O)C3=O)cc2)cc1 (centres unmarked)")
87.9

* * *

- target desc: MMP-9 (Homo sapiens)
pIC50: −log10 of the molar value.
parameter: pIC50

>>> result_value("O=C1C(S(=O)(=O)c2ccc(-c3nc4cc(F)ccc4[nH]3)cc2)CCCCN1O (stereo not drawn) [Compound 78]")
6.07
>>> result_value("Cc1ccc(Oc2ccc(S(=O)(=O)Cn3cccc(O)c3=O)cc2)cc1 [Compound 61]")
7.34
>>> result_value("Cc1ccc(Oc2ccc(N(Cc3c(C)ccn(O)c3=O)S(C)(=O)=O)cc2)cc1 [Compound 48]")
6.34
>>> result_value("O=C1[C@H](NS(=O)(=O)c2ccc(Oc3ccccc3)cc2)CC=CCN1O [Compound 3]")
8.75
>>> result_value("Cc1ccc(N(C)S(=O)(=O)c2ccc(Oc3ccc(Cl)cc3)cc2)c(=O)n1O [Compound 33]")
7.46
>>> result_value("O=c1c(O)cccn1CS(=O)(=O)c1ccc(Oc2ccc(OC(F)(F)F)cc2)cc1 [Compound 62]")
8.31

* * *

- target desc: MMP-2 (Homo sapiens, UniProt P08253)
- Construct: Human MMP-2 full length (aa 1-660)
- Sequence (P08253 30-660): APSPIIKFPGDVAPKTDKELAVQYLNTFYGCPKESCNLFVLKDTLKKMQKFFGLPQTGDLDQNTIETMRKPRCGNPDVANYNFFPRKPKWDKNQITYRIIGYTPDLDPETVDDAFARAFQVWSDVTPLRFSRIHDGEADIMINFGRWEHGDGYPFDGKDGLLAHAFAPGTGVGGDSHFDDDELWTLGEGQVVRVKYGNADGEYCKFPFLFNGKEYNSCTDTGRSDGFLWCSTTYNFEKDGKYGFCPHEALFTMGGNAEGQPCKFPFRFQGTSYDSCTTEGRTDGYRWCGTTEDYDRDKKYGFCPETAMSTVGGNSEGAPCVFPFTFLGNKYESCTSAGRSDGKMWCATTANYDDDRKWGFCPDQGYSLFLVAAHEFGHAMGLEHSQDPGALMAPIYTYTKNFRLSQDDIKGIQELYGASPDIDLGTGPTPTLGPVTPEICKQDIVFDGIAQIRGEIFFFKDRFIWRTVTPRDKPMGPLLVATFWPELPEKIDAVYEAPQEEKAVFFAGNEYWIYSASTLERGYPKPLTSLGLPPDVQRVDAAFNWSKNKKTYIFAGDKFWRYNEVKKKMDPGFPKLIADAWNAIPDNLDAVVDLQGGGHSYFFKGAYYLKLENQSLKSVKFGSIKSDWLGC
- procedure text: MMP enzymatic assay (Trupoint peptide), MMP-2
- Format: biochemical
parameter: IC50 (nM)

>>> result_value("O=C1[C@H](N(CCN2CCCCC2)S(=O)(=O)c2ccc(Oc3ccc(Cl)cc3)cc2)CC=CCN1O")
0.55
>>> result_value("CN(c1cccn(O)c1=O)S(=O)(=O)c1ccc(Oc2ccccc2)cc1")
1.52
>>> result_value("O=C1C(S(=O)(=O)c2ccc(-c3ccc(F)cc3)cc2)CCCCN1O (centres unmarked)")
584

* * *

- target desc: MMP-2 (Homo sapiens, UniProt P08253)
- Construct: Human MMP-2 full length (aa 1-660)
- procedure text: MMP enzymatic assay (Trupoint peptide), MMP-2
- Assay type: biochemical
parameter: IC50

>>> result_value("O=C1C(S(=O)(=O)c2ccc(-c3nc4cc(C(F)(F)F)ccc4[nH]3)cc2)CCCCN1O (centres unmarked)")
"> 1000 nM"
>>> result_value("N#Cc1ccc2[nH]c(-c3ccc(S(=O)(=O)C4CCCCN(O)C4=O)cc3)nc2c1 (centres unmarked)")
"> 1000 nM"
>>> result_value("CN1CCN(CCN([C@@H]2CC=CCN(O)C2=O)S(=O)(=O)c2ccc(Oc3ccc(Cl)cc3)cc2)CC1")
"0.49 nM"
>>> result_value("O=C1[C@H](NS(=O)(=O)c2ccc(N3CCN(c4ccccc4)CC3)cc2)CC=CCN1O")
"> 1000 nM"
>>> result_value("CC1=CC[C@@H](NS(=O)(=O)c2ccc(Oc3ccc(Cl)cc3)cc2)C(=O)N(O)C1")
"0.72 nM"
>>> result_value("COc1ccc(S(=O)(=O)Cc2cccn(O)c2=O)cc1")
"> 1000 nM"
>>> result_value("COc1ccc2[nH]c(-c3ccc(S(=O)(=O)C4CCCCN(O)C4=O)cc3)nc2c1 (centres unmarked)")
"> 1000 nM"
>>> result_value("Cc1ccc(Oc2ccc(N(Cc3cc(C)cn(O)c3=O)S(C)(=O)=O)cc2)cc1")
"241 nM"

* * *

Listing of recorded pIC50 by entry.
- target desc: MMP-2 (Homo sapiens, UniProt P08253)
- Construct: Human MMP-2 full length (aa 1-660)
- procedure text: MMP enzymatic assay (Trupoint peptide), MMP-2
- Format: biochemical
pIC50: −log10 of the molar value.
parameter: pIC50

>>> result_value("Cc1ccc(C#Cc2ccc(N(Cc3cccn(O)c3=O)S(C)(=O)=O)cc2)cc1")
"< 5.00"
>>> result_value("O=c1c(O)cccn1CS(=O)(=O)c1ccc(Br)s1")
"< 6.00"
>>> result_value("O=C1C(S(=O)(=O)c2ccc(-c3ccc(Cl)cc3)cc2)CCCCN1O (centres unmarked)")
"< 6.00"
>>> result_value("O=C1[C@H](NS(=O)(=O)Cc2ccc(Cl)cc2)CC=CCN1O")
"< 6.00"
>>> result_value("CCCCOc1ccc(N(Cc2cccn(O)c2=O)S(C)(=O)=O)cc1")
"< 6.00"

* * *

- target desc: MMP-2 (Homo sapiens)
- Construct: Human MMP-2 full length (aa 1-660)
- procedure text: MMP enzymatic assay (Trupoint peptide), MMP-2
- Assay type: biochemical
- Method: [formula] • 1) Prepare appropriate 1×MMP assay buffer from 10× stock. […] Need to prepare a 2.5× concentration stock (2.5 μM) to achieve this concentration in 50 μl. Dilute compound to 2.5 mM in 100% DMSO (a 1:40 dilution), then dilute the 2.5 mM compound to 2.5 μM (1:1000) into 1× assay buffer. […] • 8) Dilute the 500 μM Trupoint peptide 1:1000 into assay buffer to achieve a 5× working stock of 500 nM. […] Read in plate reader. […]
Listing of recorded IC50 by entry.
parameter: IC50 (nM)

>>> result_value("O=c1c(O)cccn1CS(=O)(=O)c1ccc(Oc2ccc(OC(F)(F)F)cc2)cc1 [Compound 62]")
13.6
>>> result_value("O=C1[C@H](NS(=O)(=O)c2ccc(Oc3ccccn3)cc2)CC=CCN1O [Compound 8]")
15.1
>>> result_value("CCN(c1cccn(O)c1=O)S(=O)(=O)c1ccc(Oc2ccc(C)cc2)cc1 [Compound 27]")
6.5
>>> result_value("O=C1C(N(CCN2CCOCC2)S(=O)(=O)c2ccc(-c3ccc(Cl)cc3)s2)CC=CCN1O (centres unmarked) [Compound 93]")
16.4
>>> result_value("Cc1ccc(Oc2ccc(N(Cc3cccn(O)c3=O)S(C)(=O)=O)cc2)cc1 [Compound 42]")
208
>>> result_value("O=C1[C@H](NS(=O)(=O)c2ccc(Oc3ccccc3)cc2)CC=CCN1O [Compound 3]")
1.07
>>> result_value("O=C1C(CS(=O)(=O)c2ccc(Oc3ccccc3)cc2)NCCCN1O (centres unmarked) [Compound 94]")
36.8

Reference for the values: patent US7803793B2
